// data source = patent US8765767B2

- SYSTEM_NAME: UniProt Q14416
- RUN_DESCRIPTION: mGluR2 cAMP assay (HTRF) in HEK293 cells clonally expressing human mGluR2
- EXPERIMENTAL_SETUP: HEK293 cells expressing human mGluR2, 1 μM forskolin, 1 μM LY-341495, 30 min
- Experimental: • Cell Culture. Clonally expressed human mGluR2 in HEK293 background was glutamate starved overnight in media without glutamine (GIBCO MEM 12360), containing 10% FBS, 1% penicillin streptomycin. • cAMP Measurement. […] Cell pellets were resuspended in stimulation buffer without forskolin and counted. […] Plates were read by time-resolved fluorescence at […] and a ratio was calculated via in house software, (665 nM/618 nM)*10^4. […] One hour later, plates were read on a PE Viewlux. […]
RECORDED_METRIC: EC50 (nM)

Reference set, count: 4
Fc1ccc([C@H]2C[C@@H]2CNc2ccn3c(CC(F)(F)F)cnc3c2C(F)(F)F)cc1 (stereo in doubt)	24
Clc1c(NC[C@H]2C[C@@H]2c2cccc3c2OCC3)ccn2c(CC3CC3)nnc12	3
Fc1cnc(C2CC2CNc2ccn3c(CC4CC4)nnc3c2Cl)nc1 (centres unmarked)	83
N#Cc1c(NCC2CC2c2ccc(F)cc2)ccn2c(CC(F)(F)F)cnc12 (centres unmarked)	108

[I] FC(F)(F)Oc1ccccc1[C@@H]1C[C@H]1CNc1ccn2c(CC3CC3)nnc2c1Cl (relative stereo)
[II] CN(C[C@H]1C[C@@H]1c1ccc(F)cc1)c1ccn2c(CC3CC3)nnc2c1C(F)(F)F
[III] Clc1c(NC[C@H]2C[C@@H]2c2cccc3c2CCO3)ccn2c(CC3CC3)nnc12
[IV] COc1ccccc1C1CC1CNc1ccn2c(CC(F)(F)F)cnc2c1C#N (centres unmarked)
Query block: Arrange by EC50, high to low. A ranking is expressed here by listing the labels in the requested order.
Result block: IV, III, I, II

====

- SYSTEM_NAME: human mGluR2 (Homo sapiens)
- Sequence (Q14416 19-872): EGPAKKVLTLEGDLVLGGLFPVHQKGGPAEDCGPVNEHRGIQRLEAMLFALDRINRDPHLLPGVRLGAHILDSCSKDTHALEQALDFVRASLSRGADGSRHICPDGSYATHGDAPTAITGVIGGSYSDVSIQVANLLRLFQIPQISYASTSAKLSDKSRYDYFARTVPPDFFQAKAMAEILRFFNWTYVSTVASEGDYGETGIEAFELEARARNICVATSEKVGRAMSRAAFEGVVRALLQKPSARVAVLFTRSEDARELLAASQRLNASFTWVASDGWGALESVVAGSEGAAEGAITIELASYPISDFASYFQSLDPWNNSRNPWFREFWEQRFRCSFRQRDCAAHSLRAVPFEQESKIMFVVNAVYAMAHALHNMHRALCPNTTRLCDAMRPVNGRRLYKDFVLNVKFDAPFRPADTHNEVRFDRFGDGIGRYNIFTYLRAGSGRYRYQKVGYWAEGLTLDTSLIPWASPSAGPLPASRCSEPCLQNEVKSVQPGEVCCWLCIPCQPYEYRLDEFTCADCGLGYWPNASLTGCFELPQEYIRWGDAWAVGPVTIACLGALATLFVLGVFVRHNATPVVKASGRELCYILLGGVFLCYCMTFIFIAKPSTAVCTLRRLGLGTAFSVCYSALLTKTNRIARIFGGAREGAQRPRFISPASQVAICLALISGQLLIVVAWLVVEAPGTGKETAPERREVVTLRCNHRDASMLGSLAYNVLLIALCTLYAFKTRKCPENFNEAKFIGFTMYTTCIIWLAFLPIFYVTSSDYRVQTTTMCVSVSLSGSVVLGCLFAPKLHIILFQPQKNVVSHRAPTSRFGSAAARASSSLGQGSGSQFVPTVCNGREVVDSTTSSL
- RUN_DESCRIPTION: mGluR2 cAMP assay (HTRF) in HEK293 cells clonally expressing human mGluR2
- EXPERIMENTAL_SETUP: HEK293 cells expressing human mGluR2, 1 μM forskolin, 1 μM LY-341495, 30 min
- Procedure: • Cell Culture. Clonally expressed human mGluR2 in HEK293 background was glutamate starved overnight in media without glutamine (GIBCO MEM 12360), containing 10% FBS, 1% penicillin streptomycin. • cAMP Measurement. […] Cell pellets were resuspended in stimulation buffer without forskolin and counted. […] Plates were read by time-resolved fluorescence at […] and a ratio was calculated via in house software, (665 nM/618 nM)*10^4. […] One hour later, plates were read on a PE Viewlux. […]
RECORDED_METRIC: EC50 (nM)

Would you please look over these solved cases?
CC(Nc1ccn2c(CC3CC3)nnc2c1Cl)[C@H]1C[C@@H]1c1ccc(F)cc1 (stereo partly shown)	31
Clc1c(NC[C@@H]2CCC[C@H]2c2ccccc2)ccn2c(CC3CC3)nnc12 (single isomer, unassigned) [Example 46]	5
Fc1ccc([C@@H]2C[C@H]2CNc2ccn3c(CC(F)(F)F)cnc3c2C(F)(F)F)cc1 (stereo in doubt)	44
Fc1ccc([C@H]2C[C@@H]2CNc2ccn3c(CC4CC4)nnc3c2C(F)(F)F)cc1	2
Clc1c(NC[C@@H]2C[C@H]2c2ccccc2)ccn2c(CC3CC3)nnc12 (relative stereo)	5

[A] COc1cccc(F)c1[C@@H]1C[C@H]1CNc1ccn2c(CC3CC3)nnc2c1Cl
[B] COc1c(F)ccc(F)c1[C@H]1C[C@@H]1CNc1ccn2c(CC3CC3)nnc2c1Cl
[C] Fc1cnc(C2CC2CNc2ccn3c(CC4CC4)nnc3c2C(F)(F)F)nc1 (stereo not shown)
[D] N#Cc1c(NCC2CC2c2cccc(F)c2)ccn2c(CC(F)(F)F)cnc12 (stereo not shown)
[E] Fc1ccccc1[C@H]1C[C@@H]1CNc1ccn2c(CC3CC3)nnc2c1Cl
Query block: Ascending by EC50, please. Form entry: ranked labels (order as requested).
Result block: A, E, B, D, C
